Molecular target: human FSH receptor (Homo sapiens, UniProt P23945)
Construct: expressed in transfected cells; host or cells: CHO (Chinese Hamster Ovary) cells, stably transfected, cotransfected with CRE-luciferase reporter
Sequence (P23945 18-695): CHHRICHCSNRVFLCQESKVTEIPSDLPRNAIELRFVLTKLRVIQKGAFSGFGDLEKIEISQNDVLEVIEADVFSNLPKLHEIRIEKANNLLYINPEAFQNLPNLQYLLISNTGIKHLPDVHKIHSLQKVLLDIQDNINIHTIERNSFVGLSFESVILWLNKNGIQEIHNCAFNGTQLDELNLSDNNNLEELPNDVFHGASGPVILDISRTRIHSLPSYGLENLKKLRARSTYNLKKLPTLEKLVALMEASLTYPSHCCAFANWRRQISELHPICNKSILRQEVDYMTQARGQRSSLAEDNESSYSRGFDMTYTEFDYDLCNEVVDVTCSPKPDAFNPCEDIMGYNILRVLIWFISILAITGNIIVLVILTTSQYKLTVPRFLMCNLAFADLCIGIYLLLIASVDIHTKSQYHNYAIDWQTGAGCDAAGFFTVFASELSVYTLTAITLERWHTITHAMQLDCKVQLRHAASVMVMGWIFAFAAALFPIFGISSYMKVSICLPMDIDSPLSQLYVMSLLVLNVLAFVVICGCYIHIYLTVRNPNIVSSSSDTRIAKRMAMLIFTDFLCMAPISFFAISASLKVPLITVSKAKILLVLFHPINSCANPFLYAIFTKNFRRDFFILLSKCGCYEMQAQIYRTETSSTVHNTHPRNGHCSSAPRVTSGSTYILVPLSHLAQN
Assay: Agonistic activity at the human FSH receptor expressed in CHO cells (CRE-luciferase reporter)
Format: cell-based
Conditions: CHO cells stably transfected with human FSH receptor and CRE/luciferase reporter; 4 hours incubation; pEC50 is -log EC50; read-out: hFSHRago (CHO luc) pEC50 (converted)
Lab note: compare EC50 with 10 nM, writing yes (1) if less and no (0) if equal or more.

[[record]]
compound = "COc1cc2c(cc1-c1c(C)nn(C)c1C)-c1c(-c3cccs3)c3c(n1CC2)C(=O)N(C(C)C)CCN(C(=O)CCC(F)(F)F)C3 [Compound 10t]"
subject_of_test = "human FSH receptor (Homo sapiens, UniProt P23945)"
cat = "no (0)"

[[record]]
compound = "COc1cc2c(cc1-c1cccnc1)-c1c(-c3cccs3)c3c(n1CC2)C(=O)N(C(C)C)CCN(C(C)=O)C3 [Compound 10p]"
subject_of_test = "human FSH receptor (Homo sapiens, UniProt P23945)"
cat = "yes (1)"

[[record]]
compound = "COc1cc2c(cc1OC(C)C)-c1c(-c3cccs3)c3c(n1CC2)C(=O)N(C(C)C)CCNC3 [Compound 14e]"
subject_of_test = "human FSH receptor (Homo sapiens, UniProt P23945)"
cat = "no (0)"

[[record]]
compound = "CCS(=O)(=O)c1cc2c(cc1OC)CCn1c3c(c(-c4cccs4)c1-2)CCCCN(C(C)(C)C)C3=O [Compound 23f]"
subject_of_test = "human FSH receptor (Homo sapiens, UniProt P23945)"
cat = "yes (1)"

[[record]]
compound = "COc1cc2c(cc1C#N)-c1c(-c3cccs3)c3c(n1CC2)C(=O)N(C(C)(C)C)CCCC3 [Compound 20h]"
subject_of_test = "human FSH receptor (Homo sapiens, UniProt P23945)"
cat = "yes (1)"

[[record]]
compound = "CCS(=O)(=O)c1cc2c(cc1OC)CCn1c3c(c(Br)c1-2)CCCCN(C(C)(C)C)C3=O [Compound 23e]"
subject_of_test = "human FSH receptor (Homo sapiens, UniProt P23945)"
cat = "no (0)"

[[record]]
compound = "COc1cc2c(cc1C(=O)NCC(O)CO)-c1c(-c3cccs3)c3c(n1CC2)C(=O)N(C(C)(C)C)CCCC3 (stereo not shown)"
subject_of_test = "human FSH receptor (Homo sapiens, UniProt P23945)"
cat = "yes (1)"

[[record]]
compound = "COc1cc2c(cc1Br)-c1c(-c3cncs3)c3c(n1CC2)C(=O)N(C(C)(C)C)CCCC3 [Compound 17i]"
subject_of_test = "human FSH receptor (Homo sapiens, UniProt P23945)"
cat = "yes (1)"

[[record]]
compound = "COc1cc2c(cc1-c1cnccn1)-c1c(-c3cccs3)c3c(n1CC2)C(=O)N(C(C)(C)C)CCCOC3"
subject_of_test = "human FSH receptor (Homo sapiens, UniProt P23945)"
cat = "no (0)"

[[record]]
compound = "CC[S+]([O-])c1cc2c(cc1OC)CCn1c3c(c(Br)c1-2)CCCCN(C(C)(C)C)C3=O (stereo not shown) [Compound 23d]"
subject_of_test = "human FSH receptor (Homo sapiens, UniProt P23945)"
cat = "no (0)"

[[record]]
compound = "COc1cc2c(cc1-c1cnccn1)-c1c(-c3cncs3)c3c(n1CC2)C(=O)N(C(C)(C)C)CCCOC3"
subject_of_test = "human FSH receptor (Homo sapiens, UniProt P23945)"
cat = "no (0)"

[[record]]
compound = "COc1cc2c(cc1-c1cccnc1)-c1c(-c3cccs3)c3c(n1CC2)C(=O)N(C(C)(C)C)CCCOC3"
subject_of_test = "human FSH receptor (Homo sapiens, UniProt P23945)"
cat = "yes (1)"

[[record]]
compound = "COc1cc2c(cc1-c1cccnc1)-c1c(-c3ncco3)c3c(n1CC2)C(=O)N(C(C)(C)C)CCC3 [Compound 13f]"
subject_of_test = "human FSH receptor (Homo sapiens, UniProt P23945)"
cat = "no (0)"

[[record]]
compound = "COc1cc2c(cc1-c1cccnc1)-c1c(-c3cncs3)c3c(n1CC2)C(=O)N(C(C)(C)C)CCCOC3"
subject_of_test = "human FSH receptor (Homo sapiens, UniProt P23945)"
cat = "no (0)"

[[record]]
compound = "COc1cc2c(cc1-c1ncco1)-c1c(-c3cncs3)c3c(n1CC2)C(=O)N(C(C)(C)C)CCCC3 [Compound 17j]"
subject_of_test = "human FSH receptor (Homo sapiens, UniProt P23945)"
cat = "yes (1)"

[[record]]
compound = "CCn1nnc(-c2cc3c(cc2OC)CCn2c4c(c(-c5cccs5)c2-3)CCCN(C(C)(C)C)C4=O)n1"
subject_of_test = "human FSH receptor (Homo sapiens, UniProt P23945)"
cat = "no (0)"

[[record]]
compound = "CCN1CCN(CC(=O)Nc2cc3c(cc2OC)CCn2c4c(c(-c5cccs5)c2-3)CCCCN(C(C)(C)C)C4=O)CC1 [Compound 22d]"
subject_of_test = "human FSH receptor (Homo sapiens, UniProt P23945)"
cat = "yes (1)"

[[record]]
compound = "COc1cc2c(cc1-c1cccnc1)-c1c(-c3cncs3)c3c(n1CC2)C(=O)N(C(C)(C)C)CCCC3 [Compound 17k]"
subject_of_test = "human FSH receptor (Homo sapiens, UniProt P23945)"
cat = "yes (1)"

[[record]]
compound = "COc1cc2c(cc1-c1cccnc1)-c1c(-c3cccs3)c3c(n1CC2)C(=O)N(C(C)(C)C)CCC(C)(C)C3 [Compound 24k]"
subject_of_test = "human FSH receptor (Homo sapiens, UniProt P23945)"
cat = "no (0)"

[[record]]
compound = "COc1cc2c(cc1-c1cccnc1)-c1c(-c3cscn3)c3c(n1CC2)C(=O)N(C(C)(C)C)CCCCC3 [Compound 16t]"
subject_of_test = "human FSH receptor (Homo sapiens, UniProt P23945)"
cat = "no (0)"

[[record]]
compound = "COc1cc2c(cc1-c1cccnc1)-c1c(-c3cccs3)c3c(n1CC2)C(=O)N(C(C)(C)C)CCC3"
subject_of_test = "human FSH receptor (Homo sapiens, UniProt P23945)"
cat = "yes (1)"

[[record]]
compound = "COc1cc2c(cc1C(=O)N1CCC[C@H]1CO)-c1c(-c3cccs3)c3c(n1CC2)C(=O)N(C(C)(C)C)CCCC3"
subject_of_test = "human FSH receptor (Homo sapiens, UniProt P23945)"
cat = "no (0)"


Ref: patent US8431564B2
